The following molecules have recorded IC50 on JAK2 (Homo sapiens (Human), UniProt O60674).
Sequence (O60674 whole entry, species assumed): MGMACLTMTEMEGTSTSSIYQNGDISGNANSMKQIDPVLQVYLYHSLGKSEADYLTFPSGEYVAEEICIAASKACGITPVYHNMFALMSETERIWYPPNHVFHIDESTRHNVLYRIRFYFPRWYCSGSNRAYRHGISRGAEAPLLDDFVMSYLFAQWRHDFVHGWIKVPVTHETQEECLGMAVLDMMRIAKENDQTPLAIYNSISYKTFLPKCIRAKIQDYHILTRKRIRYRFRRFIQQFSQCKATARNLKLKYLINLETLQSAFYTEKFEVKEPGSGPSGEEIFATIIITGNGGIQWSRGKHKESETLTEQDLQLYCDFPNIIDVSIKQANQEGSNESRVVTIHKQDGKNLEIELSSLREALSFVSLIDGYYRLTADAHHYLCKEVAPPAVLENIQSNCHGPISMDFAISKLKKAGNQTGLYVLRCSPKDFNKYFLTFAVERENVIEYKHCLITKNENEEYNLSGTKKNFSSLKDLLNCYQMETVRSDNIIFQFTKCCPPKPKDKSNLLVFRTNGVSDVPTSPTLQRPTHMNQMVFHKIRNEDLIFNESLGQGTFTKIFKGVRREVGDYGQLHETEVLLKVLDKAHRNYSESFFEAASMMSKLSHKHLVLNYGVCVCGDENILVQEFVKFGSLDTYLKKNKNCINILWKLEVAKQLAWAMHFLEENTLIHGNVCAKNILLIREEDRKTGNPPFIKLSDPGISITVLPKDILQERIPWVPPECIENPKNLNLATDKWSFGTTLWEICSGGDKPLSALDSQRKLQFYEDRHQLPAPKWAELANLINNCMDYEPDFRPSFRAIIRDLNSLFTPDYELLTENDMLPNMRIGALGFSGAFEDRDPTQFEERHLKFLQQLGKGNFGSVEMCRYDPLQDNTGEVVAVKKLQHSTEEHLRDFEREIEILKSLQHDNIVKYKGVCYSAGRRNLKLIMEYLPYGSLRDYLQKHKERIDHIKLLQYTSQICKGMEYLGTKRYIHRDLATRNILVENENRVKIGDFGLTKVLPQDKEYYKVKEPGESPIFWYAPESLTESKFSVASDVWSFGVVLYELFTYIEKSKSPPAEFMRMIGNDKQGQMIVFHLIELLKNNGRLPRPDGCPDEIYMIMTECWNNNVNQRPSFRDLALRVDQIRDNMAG
Quick note: give the figure in µM, leave out the unit.

Asked: # input molecule: O=C(Nc1ccc2cnccc2n1)C1CC1c1ccc(S(=O)(=O)Nc2ccccn2)cc1 (centres unmarked) ; wanted: its IC50
Given back: 0.022

Asked: # input molecule: Cc1cncc2sc(NC(=O)[C@@H]3C[C@H]3c3ccc(S(=O)(=O)Nc4ccccn4)cc3)cc12 (racemic) ; wanted: its IC50
Given back: 0.0089

====

The following compounds have recorded IC50 on ROCK1 (Homo sapiens (Human), UniProt Q13464).
Sequence (Q13464 whole entry, species assumed): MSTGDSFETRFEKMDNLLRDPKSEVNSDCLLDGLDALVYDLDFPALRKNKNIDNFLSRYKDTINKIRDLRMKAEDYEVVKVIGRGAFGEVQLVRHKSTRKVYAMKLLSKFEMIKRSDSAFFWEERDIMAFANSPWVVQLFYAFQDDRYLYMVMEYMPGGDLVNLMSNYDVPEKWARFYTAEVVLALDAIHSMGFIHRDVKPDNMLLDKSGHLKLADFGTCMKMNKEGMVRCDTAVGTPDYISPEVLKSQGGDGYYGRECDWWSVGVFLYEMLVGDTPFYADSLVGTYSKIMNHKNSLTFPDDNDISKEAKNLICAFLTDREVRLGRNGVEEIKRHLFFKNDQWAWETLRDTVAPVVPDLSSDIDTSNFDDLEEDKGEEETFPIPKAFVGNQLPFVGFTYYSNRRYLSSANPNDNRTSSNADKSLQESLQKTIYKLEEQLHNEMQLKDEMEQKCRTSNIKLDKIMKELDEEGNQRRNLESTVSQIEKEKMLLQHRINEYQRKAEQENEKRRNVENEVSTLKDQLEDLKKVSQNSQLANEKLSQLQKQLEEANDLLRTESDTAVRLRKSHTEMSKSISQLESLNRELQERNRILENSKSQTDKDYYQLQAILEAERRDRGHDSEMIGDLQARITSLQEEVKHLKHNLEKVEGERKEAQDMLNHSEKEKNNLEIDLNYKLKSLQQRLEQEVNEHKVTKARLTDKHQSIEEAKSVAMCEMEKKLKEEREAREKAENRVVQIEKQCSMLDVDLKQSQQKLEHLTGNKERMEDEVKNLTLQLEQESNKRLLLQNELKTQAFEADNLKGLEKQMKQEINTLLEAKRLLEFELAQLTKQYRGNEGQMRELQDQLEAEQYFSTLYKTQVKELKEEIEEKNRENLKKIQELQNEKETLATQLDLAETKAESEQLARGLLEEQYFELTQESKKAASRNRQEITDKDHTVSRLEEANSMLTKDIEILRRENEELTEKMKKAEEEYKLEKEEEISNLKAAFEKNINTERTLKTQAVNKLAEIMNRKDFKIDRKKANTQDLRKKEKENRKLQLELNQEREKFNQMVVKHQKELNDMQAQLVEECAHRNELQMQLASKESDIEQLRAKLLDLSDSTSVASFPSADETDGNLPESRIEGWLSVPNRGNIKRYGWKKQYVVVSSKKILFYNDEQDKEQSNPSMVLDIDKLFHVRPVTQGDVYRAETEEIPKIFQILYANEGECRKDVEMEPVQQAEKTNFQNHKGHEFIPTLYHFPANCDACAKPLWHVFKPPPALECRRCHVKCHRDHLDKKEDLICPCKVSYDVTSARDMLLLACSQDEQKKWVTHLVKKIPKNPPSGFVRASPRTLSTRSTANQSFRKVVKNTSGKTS
Quick note: give the figure in nM, leave out the unit.

Asked: # input compound: O=C(Nc1nc2ccncc2s1)[C@@H]1CC1c1ccc(S(=O)(=O)Nc2ccccn2)cc1 (mixture of isomers) [Compound 3] ; wanted: its IC50
Given back: 7

Asked: # input compound: O=C(Nc1cc2c(Cl)cncc2s1)C1CC1c1ccccc1 (centres unmarked) [Compound 19] ; wanted: its IC50
Given back: 43
